Molecular target: T1, Angola strain MARV GP ectodomain containing the mucin-like domain (Marburg virus, Angola strain, UniProt Q1PD50 19-648)
T1 chain: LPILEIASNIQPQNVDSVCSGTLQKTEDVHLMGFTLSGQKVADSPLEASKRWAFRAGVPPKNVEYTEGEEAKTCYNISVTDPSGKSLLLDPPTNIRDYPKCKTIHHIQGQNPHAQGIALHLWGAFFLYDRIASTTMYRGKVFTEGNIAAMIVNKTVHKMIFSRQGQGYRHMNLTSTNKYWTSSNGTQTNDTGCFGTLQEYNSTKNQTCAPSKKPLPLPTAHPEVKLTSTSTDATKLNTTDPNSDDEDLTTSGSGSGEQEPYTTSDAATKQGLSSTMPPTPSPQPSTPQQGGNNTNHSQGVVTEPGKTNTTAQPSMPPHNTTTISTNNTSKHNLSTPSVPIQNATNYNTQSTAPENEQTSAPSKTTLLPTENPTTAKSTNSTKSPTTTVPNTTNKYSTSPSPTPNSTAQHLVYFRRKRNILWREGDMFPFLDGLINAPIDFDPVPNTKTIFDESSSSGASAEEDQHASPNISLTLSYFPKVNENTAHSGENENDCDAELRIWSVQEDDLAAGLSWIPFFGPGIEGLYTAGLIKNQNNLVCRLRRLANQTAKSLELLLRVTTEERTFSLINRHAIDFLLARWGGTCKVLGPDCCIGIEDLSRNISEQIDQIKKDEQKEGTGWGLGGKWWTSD
Assay: ELISA
So basically, if EC50 comes in under 2 µg/mL it's 1.0, and if it's 2 µg/mL or more it's 0.0.

binder="MR144 (antibody, V domains shown) V domain 1: QVQLQESGPGLVKPSETLSLTCTVSGDSISRYYWSWIRQPPGKGLEWIGYLYYSGSTDYNPSLKSRVTISVDTSKNQFSLNLTSVTAADTAVYYCARGSSRGIGVVSHWFDPWGQGT V domain 2: SYVLTQPPSVSVAPGQTARITCGGSNMGYKSVQWYQQRPGQAPVLVVYDDTDRPSGIPERFSGSNSGATATLTISSVEAGDEADYYCQVWDSSSDHHVVFGGGTQVTVL" classification=0.0
binder="MR209 (antibody) chain 1: QLQLQESGPGLVKPSETLSLTCTVAGGPITSNNYYWGWIRQSPGKGLEWIGSVYYSGNTYYNPSIKTRVTMSVDTSKSQFSLKLNSVTAADTAVYYCARQFRLLQFVEWLHHFDSWGPGN chain 2: SYVLTQPPSVSVAPGQTARIPCGGNDIANKRVHWYQQKPGQAPMLVVYDDGDRPSGIPERFSGSNSGNTATLTISRVEAGDEADYYCQVWENSSDLCVVFGGGTKLTVL" classification=0.0
binder="MR201 (antibody, V domains shown) VH: QLQLQESGPGLVKPSETLFLSCAVSGGSIAGSTHYWGWIRQPPGKGLEWIGSISESGSTYHNPSLKSRVTISVDTSKNYFSLNLSSVTAADTAVYYCARIVGQSGTFIYYYYAMDVWGTGTLVTVSS VL: DIQLTQSPSFLSASVGDRVTITCRASQGISSYLAWYQQKPGKAPKLLIYAASTLQRGVPSRFSGSGSGTEFTLTISSLQPEDSATYYCQQLNSYLALIFGGGT" classification=1.0
binder="MR241 (antibody, V domains shown) VH: QVQLQESGPGLVKPSETLSLTCTVSGASISGNFWSWIRQPPGKGLEYIGYMSDIGTTNYSPSLKSRVTISVDTSKNQFSLNLTSVTAADAAVYYCARLVAVPGFFYHYYMDVWGEGTLVTVSS VL: DIVMTQSPSSVSASVGDRVTITCRASQGISGWLAWYQQKPGKAPKLLIYATSTLQSGVPSRFSGSESGTAFTLTISSLQPEDFATYYCQQANSFPLTFGGGTKVEIK" classification=0.0
binder="MR65 (antibody, V domains shown) VH: EVQLLESGGGLVQPGGSLRLSCAASGFTFSSYAMSWVRQAPGQGLEWVSGISATGGNTYYPDSVKGRFTISRDNSKNTLYLQMNSLRAEDTAVYYCARPLQFLTWFDPWGQGTLVTVSS VL: EIVLTQSPATLSLSPGERATLSCRASQSVNNFLAWYQQKPGQPPRLLIYDATNRATGIPARFSGSGSGTDFTLTISSLEPEDFAVYHCQHRSNWPSITFGQGTRLEIK" classification=0.0
binder="MR111 human monoclonal antibody (antibody, V domains shown) V domain 1: QVQLQESGPGLVKPSETLSLTCTVSGDSINNYYWSWIRQPPGKGLEWIGYIYYSNTNYNPSLKSRVTISVDTSKNQFSLRLSSVTAADTAVYYCARSPLFWFGEFFSSPDHFDFWGQGTL V domain 2: QSALTQPASVSGSPGQSITISCTGTSSDVGSYDLVSWYQQHPGKAPKLMLYEGTKRPSGVSNRFSGSKSGNTASLTISGLQAEDEADYYCCSYAGGSTLVFGGGTQVTVL" classification=0.0
binder="MR191 human monoclonal antibody (antibody, V domains shown) VH: QLQLQESGPGLVKPSETLSLSCTVSGVSISDNSYYWGWIRQPPGKGLEWIGTISYSGNTYYNPSLKSRVSISGDTSKHQLSLKVSSVTAADTAVYYCARQRIVSGFVEWLSKFDYWGQGTLVTVSS VL: QSVLTQPPSVSGAPGQRVTISCTGSSSNIGAGFDVHWYQQLPGTAPKLLIYDNNNRPSGVPDRFSGSKSGTSASLAITGLQAEDEADYYCQSYDTSLSGPVVFGGGTKLTVL" classification=0.0
binder="MR229 (antibody) chain 1: EVQLVESGGGLVKPGGSLRISCVTSGFTFGDYAMSWFRQAPGKGLEWVGFIRNKGYGGTIDYAASVKGRFTISRDDSKSIAYLQMNSLKTEDTAVYYCTGVRLHYDFWSGYDDDSFHIWGQGTM chain 2: DGVMTQSPLSLPVTPGQPASISCRSTQSLVHGDGDTYLYWFQQRPGQSPRRLIYKVSNRDSGVPDRFSGSGSGTDFTLKISRVEAEDVGVYYCMQSTHWPPTFGQ" classification=1.0
binder="MR208 (antibody, V domains shown) VH: QVQLQESGPGLVKPSETLSLTCSVSGDSVSSGDYYWSWLRQPPGKGLEWIGYIYYSGATNYNPSLKSRVTISLDTSKNQFSLKLTSVTAADTAVYYCARERAGFLEWLFFEDWGQGT VL: DIQMTQSPSSLSASVGDRVTIFCRASQSIGTYLSWYQQKPGKAPKVLIYATSNLQSGVPSRFSGSGSGTEFTLTISSLQPEDFATYYCQQSRTFGQGTKVDMK" classification=0.0
binder="MR72 human monoclonal antibody (antibody, V domains shown) VH: QLQLQESGPGLVKPSETLSLTCTVSGDSINNTNYYWAWIRQPPGKGLEYIGSIYYSGSTYYNPSLKSRVTMSVDASKNQFSLRLSSVTAADTAVYYCATHPTLGAFVLLWFGANFDHWGQGTLVTVSS VL: QAVVTQPPSVSGAPGQRVTISCTGSSSNIGANYDVHWYQQLPGTAPKLLMYSNTNRPSGVPDRFSGSKSGTSASLAITGLQAEDEADYYCQSYDNSLNSWVFGGGTQLTVL" classification=0.0
